# Test Protocol: BET inhibitor-based combinations targeting novel dependencies in MECOM-rearranged (r) AML: SET-2 cell line (AID 2202231); note: potency is the fitted concentration of half-maximal effect; nearly all actives have a fitted effect of over 35% in size
# Experimental Context: SET-2 AML cells viability, CellTiter-Glo luminescence, 48 h
Records with an inconclusive call do not appear. Active and inactive are the calls of the source. Calls come from the whole dose curve; as a rule, active = well fitted inhibition curve with a large enough effect; inconclusive = small, poorly fitted or top-dose-only effect; inactive = no such curve, though single readings can be large or run the other way.
Readout Label: Potency

Please review the following examples before continuing.
CCN(CC)CCCCNc1ncc2cc(-c3cc(OC)cc(OC)c3)c(NC(=O)NC(C)(C)C)nc2n1 = 20.9 µM (active)
CCCC(CCC)C(=O)Nc1ccn([C@@H]2O[C@H](CO)[C@@H](O)C2(F)F)c(=O)n1 = 3.72 µM (active)
Cn1ncc(Cl)c1-c1cc(C(=O)N[C@H](CN)Cc2cccc(F)c2)sc1Cl = 9.34 µM (active)
CS(=O)(=O)N1CCC(NC(=O)c2[nH]ncc2NC(=O)c2c(Cl)cccc2Cl)CC1 = 2.35 µM (active)
CCOc1cc(C(=O)N2CCC(N3CCN(C)CC3)CC2)ccc1Nc1ncc2c(n1)N(C1CCCC1)c1ccccc1C(=O)N2C = 14.8 µM (active)

Item `Cc1ccc(C(=O)Nc2cccc(C(F)(F)F)c2)cc1-c1ccc2nc(NCCN3CCOCC3)ncc2c1` has what recorded Potency?
11.8 µM (active)

Item `CC(C)C[C@@H](C(=O)N[C@H](C(=O)OC1CCCC1)c1ccccc1)[C@H](O)C(=O)NO` has what recorded Potency?
14.8 µM (active)

Item `NC(=O)Nc1cc(-c2ccc(CN3CCOCC3)cc2)sc1C(N)=O` has what recorded Potency?
10.5 µM (active)
